target: cMET receptor tyrosine kinase (GST-cMET (969-1390)) (Homo sapiens, UniProt P08581); test: EPK cMET profiling assay (LanthaScreen TR-FRET antibody based kinase phosphorylation assay); details: purified recombinant GST-cMET (969-1390), 2 μM ATP, 50 nM Fluorescein-PolyEAY, 60 minutes at room temperature; read-out: c-Met IC50
Sequence (P08581 969-1390): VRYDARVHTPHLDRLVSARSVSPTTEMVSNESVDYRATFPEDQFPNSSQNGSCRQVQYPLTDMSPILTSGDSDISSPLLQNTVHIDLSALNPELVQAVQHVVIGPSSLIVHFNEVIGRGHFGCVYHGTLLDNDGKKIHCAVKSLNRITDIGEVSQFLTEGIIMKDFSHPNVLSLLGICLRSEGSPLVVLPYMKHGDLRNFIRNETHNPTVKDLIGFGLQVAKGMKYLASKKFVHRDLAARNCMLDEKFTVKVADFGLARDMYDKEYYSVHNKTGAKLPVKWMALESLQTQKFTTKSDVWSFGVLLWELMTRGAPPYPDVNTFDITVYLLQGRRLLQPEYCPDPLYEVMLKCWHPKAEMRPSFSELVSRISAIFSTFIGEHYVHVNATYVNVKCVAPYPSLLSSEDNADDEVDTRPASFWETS
Each record's class is read off its IC50 using these ranges: lower level = under 60 nM, middle level = from 60 nM up to 200 nM, upper level = 200 nM and over

> print(dat)
                                    compound   group.label
 1  N#Cc1cc(-c2ccc3ncc(Cc4ccc5ncccc5c4)n3n2)ccc1F [Example 67]  middle level
 2  CNC(=O)c1ccc(-c2ccc3ncc(Cc4ccc5ncccc5c4)n3n2)cc1F [Example 70]  middle level
 3  c1cnc2ccc(Cc3cnc4ccc(Nc5ccncn5)nn34)cc2c1 [Example 131]  middle level
 4  CC(=O)Nc1cccc(-c2ccc3ncc(Cc4ccc5ncccc5c4)n3n2)c1 [Example 28]   upper level
 5  CCCn1cc(-c2ccc3ncc(Cc4ccc5ncccc5c4)n3n2)cn1 [Example 46]   lower level
 6  C[C@@H](c1ccc2ncccc2c1)c1cnc2ccc(-c3cnn(CCO)c3)nn12 [Example 179]   lower level
 7  Cn1cc(-c2ccc3ncc(Cc4ccc5ncc(C(O)CO)n5c4)n3n2)cn1 (centres unmarked) [Example 304]   upper level
 8  CC(c1ccc(O)cc1)c1cnc2ccc(-c3cnn(C)c3)nn12 (racemic) [Example 222]   upper level
 9  Cn1cc(-c2ccc3ncc(C(O)c4ccc5nccnc5c4)n3n2)cn1 (racemic) [Example 11]   upper level
10  CC(c1ccc2c(c1)CCCN2)c1cnc2ccc(-c3cnn(C)c3)nn12 (racemic) [Example 156]  middle level
11  CC(=O)NCCNc1ccc2ncc(Cc3ccc4ncccc4c3)n2n1 [Example 96]  middle level
12  c1ccc(-c2ccc3ncc(Cc4ccc5ncccc5c4)n3n2)cc1 [Example 30]  middle level
13  Clc1cccc(-c2ccc3ncc(Cc4ccc5ncccc5c4)n3n2)c1 [Example 53]  middle level
14  CCOc1ccc2ncc(Cc3ccc4ncccc4c3)n2n1 [Example 123]  middle level
15  C[C@@H](c1ccc2[nH]ncc2c1)c1cnc2ccc(-c3cnn(C)c3)nn12 [Example 195]   lower level
16  c1cn2cc(Cc3cnc4ccc(-c5cn[nH]c5)nn34)ccc2n1 [Example 290]  middle level
17  CC(c1cc2cccnc2cc1F)c1cnc2ccc(-c3cnn(C4CCNCC4)c3)nn12 (racemic) [Example 258]   lower level
18  Cn1cc(-c2ccc3ncc(Cc4c[nH]c5ncccc45)n3n2)cn1 [Example 199]   lower level
19  c1cnc2ccc(Cc3cnc4ccc(-c5ccc6c(c5)CCO6)nn34)cc2c1 [Example 63]  middle level
